Values compiled from paper PMC11245370.

# System: P. falciparum atovaquone-resistant clinical isolate Tm90-C2B
# test.summary: SYBR Green I antiplasmodial assay, Tm90-C2B
# Assay type: cell-based
# test.conditions: Plasmodium falciparum, TM90; 72 h, SYBR Green; mean (95% confidence interval of fit); read-out: P. falciparum IC50 values, Tm90-C2B
pIC50: −log10 of the molar value.
test.readout: pIC50

In: Specify the recorded pIC50 for O=C1C(O)=C([C@H]2CC[C@H](c3ccc(Cl)cc3)CC2)C(=O)c2ccccc21 [Atovaquone, reference compound] , system: P. falciparum atovaquone-resistant clinical isolate Tm90-C2B.
Out: < 6.00

====

# test.summary: Pharmacokinetics after single dose of ELQ-598
# Type: in vivo
# test.conditions: male, CD1; mouse plasma, single ELQ-598 dose 0.3 mg/kg IV
test.readout: Cmax (ng/mL)
Numeric only. Scale: ng/mL

In: Fill in reported Cmax for this entry: `COc1cc2[nH]c(C)c(-c3ccc(-c4ccc(OC(F)(F)F)cc4)cc3)c(=O)c2cc1Cl`
Out: 303
